Target: Cyclin-dependent kinase 1 (Homo sapiens)
Sequence (P06493 whole entry): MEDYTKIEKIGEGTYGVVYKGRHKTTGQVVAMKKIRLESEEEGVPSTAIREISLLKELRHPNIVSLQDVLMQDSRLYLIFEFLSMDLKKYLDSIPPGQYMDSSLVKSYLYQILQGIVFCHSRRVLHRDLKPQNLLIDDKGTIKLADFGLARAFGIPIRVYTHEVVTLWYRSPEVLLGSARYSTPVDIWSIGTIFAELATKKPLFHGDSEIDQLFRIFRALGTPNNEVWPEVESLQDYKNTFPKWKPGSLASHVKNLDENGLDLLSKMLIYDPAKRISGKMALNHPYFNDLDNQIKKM
Conditions: ht-29
Description: Inhibition of human Cdc2 kinase PY15 phosphorylation in HT29 cells by Western blot
Would you mind telling me the reported pIC50 of each entry?
Just so you know, pIC50 here is -log10 of the concentration in molar units; reply with that number alone.

Response field pIC50 (Cyclin-dependent kinase 1 (Homo sapiens)) for item CN(C)CCCCc1cc2[nH]c3cc(-c4ccccc4Cl)c4c(c3c2cc1O)C(=O)NC4=O : 6.60

Record CN(C)CCCOc1cc2c(cc1O)c1c3c(c(-c4ccccc4Cl)cc1n2CCO)C(=O)NC3=O has Cyclin-dependent kinase 1 (Homo sapiens) pIC50 equal to 6.60

Tested on Cyclin-dependent kinase 1 (Homo sapiens): O=C1NC(=O)c2c1c(-c1ccccc1Cl)cc1[nH]c3cc(CCCCN4CCCC4)c(O)cc3c21 . Observed pIC50: 6.70

pIC50 value, target or system Cyclin-dependent kinase 1 (Homo sapiens), for O=C1NC(=O)c2c1c(-c1ccccc1Cl)cc1c2c2cc(O)ccc2n1CCCO : 6.60

For the compound Cn1c2cc(OCCCN3CCCC3)c(O)cc2c2c3c(c(-c4ccccc4Cl)cc21)C(=O)NC3=O , the measured pIC50 on Cyclin-dependent kinase 1 (Homo sapiens) was 7.52

Readout pIC50 for CN(C)CCCOc1cc2c(cc1O)c1c3c(c(-c4ccccc4Cl)cc1n2C)C(=O)NC3=O , test system Cyclin-dependent kinase 1 (Homo sapiens), was 8.00

pIC50 of O=C1NC(=O)c2c1c(-c1ccccc1Cl)cc1[nH]c3cc(CCCCN4CCOCC4)c(O)cc3c21 , assay on Cyclin-dependent kinase 1 (Homo sapiens), is 6.60

Test item O=C1NC(=O)c2c1c(-c1ccccc1Cl)cc1c2c2cc(O)c(OCCCN3CCCC3)cc2n1CCO ; Cyclin-dependent kinase 1 (Homo sapiens); reported pIC50 was 7.52

Entry O=C1NC(=O)c2c1c(-c1ccccc1Cl)cc1c2c2cc(O)c(OCCCN3CCOCC3)cc2n1CCO , tested on Cyclin-dependent kinase 1 (Homo sapiens), has a reported pIC50 of 6.60
